- Test system: Rattus norvegicus
- testMethodNotes: Toxicity in po dosed rat assessed as decrease in reticulocyte counts for 4 days
- Assay type: organism-based
- conditionsUsed: in vivo, 96 h

{"chemicalString": "CNC1CN(c2cc(NCCC(C)(C)C)nc(N)n2)C1", "testedOn": "Rattus norvegicus", "Activity": "Non-toxic"}
{"chemicalString": "CN1C[C@@H]2CN(C(=O)c3nc4cc(F)c(F)cc4[nH]3)C[C@@H]2C1", "testedOn": "Rattus norvegicus", "Activity": "Toxic"}
{"chemicalString": "CNC1CN(c2cc(NCC(C)(C)C)nc(N)n2)C1", "testedOn": "Rattus norvegicus", "Activity": "Non-toxic"}
{"chemicalString": "CN1C[C@@H]2CN(C(=N)c3nc4cc(F)c(F)cc4[nH]3)C[C@@H]2C1", "testedOn": "Rattus norvegicus", "Activity": "Toxic"}
